# Test system: P12-Ichikawa
# protocol details: cell viability relative to DMSO control; higher = less cytotoxic
# condition description: HPLM + 10% dialyzed FBS; 48 h; 0.00702 µM
metric name: cell viability (%)
Value expressed in %; do not type the unit.

compound	assayed system	quantity unit	meas value
OC[C@H]1O[C@H]([C@@H](F)[C@@H]1O)N2\C=C/C(=O)NC2=O	P12-Ichikawa	%	108
CC(=O)OCC(=O)[C@@]12\N=C(C)/O[C@@H]1C[C@H]3[C@@H]4CCC/5=C/C(=O)/C=C\[C@]5(C)[C@H]4[C@@H](O)C[C@]23C	P12-Ichikawa	%	108
CC(C)Nc1cc(C(F)(F)F)cc2nc(NC(=O)c3cccnc3)nn12	P12-Ichikawa	%	117
C\C1=C\C(=O)C2=C(C=CC=C2)C1=O	P12-Ichikawa	%	118
Cc1nccn1CC1CCc2c(c3ccccc3n2C)C1=O (stereo not drawn)	P12-Ichikawa	%	121
CC(=O)O[C@@]1(CC[C@H]2[C@@H]3\C=C(C)/C4=C/C(=O)CC[C@]4(C)[C@H]3CC[C@]12C)C(C)=O	P12-Ichikawa	%	109
CCC[C@H](N[C@@H](C)C(=O)N1[C@H](C(=O)O)C[C@@H]2CCCC[C@@H]21)C(=O)OCC	P12-Ichikawa	%	109

Then this compound:
Query: Give cell viability (P12-Ichikawa) of the following compound: C[C@H]1C[C@H]2[C@@H]3CCC4=CC(=O)C=C[C@]4(C)[C@@]3(F)[C@@H](O)C[C@]2(C)[C@@]1(O)C(=O)CO
Reply: 118

###

Entries and their cell viability
# Tested on: SEM cells
# protocol details: cell viability relative to DMSO control; higher = less cytotoxic
# condition description: RPMI 5 mM glucose + 10% FBS; 48 h; 0.0211 µM
Report as a plain number; the unit % is understood.

Please review the entries below; each comes with its answer.
compound	metric name	meas value
CC(C)Oc1cc(Nc2nc(N[C@@H](C)c3ccc(F)cn3)ncc2Cl)n[nH]1	cell viability	95.6
CC(C)(C)C(=O)OCOP(=O)(COCCn1cnc2c(N)ncnc21)OCOC(=O)C(C)(C)C	cell viability	88
CN(C/C=C/C#CC(C)(C)C)Cc1cccc2ccccc12	cell viability	94.2
CC(=O)NC(CS)C(=O)O (stereo not given)	cell viability	99.1

# next compound below
Query: Give the measured cell viability of CCNC(=O)c1cc2c(-c3cc(OCCN4CCCC4)c(Cl)cc3Cl)nc(N)nc2s1 .
Reply: 96.6

###

Below is a list of entries, each paired with its recorded cell viability value.
# System: SEM cells
# protocol details: cell viability relative to DMSO control; higher = less cytotoxic
# condition description: HPLM + 10% dialyzed FBS; 48 h; 0.19 µM
Quick reminder: number only, in %, skip the unit.

Worked examples follow.
compound	cell viability / %
CC(C)Nc1cc(-c2c[nH]c(C(=O)N[C@H](CO)c3cccc(Cl)c3)c2)c(Cl)cn1	133
Cc1nccn1CC1CCc2c(c3ccccc3n2C)C1=O (stereo not given)	120
OCc1ccc(-c2nn(Cc3ccccc3)c3ccccc23)o1	113
O=C1Nc2ccc(Cl)cc2[C@@](C#CC2CC2)(C(F)(F)F)O1	88.4

Okay, next one:
Query: Which cell viability value belongs to CC(C)n1nc(-c2ccc3oc(N)nc3c2)c2c(N)ncnc21 ?
Reply: 38.5

###

# System: NOMO1
# protocol details: cell viability relative to DMSO control; higher = less cytotoxic
# condition description: HPLM + 10% dialyzed FBS; 48 h; 46.1 µM
Some molecules, each annotated with its measured cell viability.
Answer format: numeric, % implied, no suffix.

CCC[C@H](N[C@@H](C)C(=O)N1[C@H](C(=O)O)C[C@@H]2CCCC[C@@H]21)C(=O)OCC 43.9

Query: Find cell viability (NOMO1) for the entry CN(C)C(=O)c1ccc([S+](=O)([O-])c2ccc(NC(=O)[C@@](C)(O)C(F)(F)F)c(Cl)c2)cc1
Reply: 10.2

Query: Provide value of cell viability for this record tested with NOMO1: C[N+]1(C)[C@@H]2C[C@@H](OC(=O)[C@H](CO)c3ccccc3)C[C@H]1[C@@H]1O[C@@H]12.[Br-]
Reply: 101

Query: Observed cell viability on NOMO1 for Cc1cc(Nc2nc(N[C@@H](C)c3ncc(F)cn3)ncc2Cl)n[nH]1 , please.
Reply: 28.5

Query: Lab request: please report cell viability under test system NOMO1 for COc1cc2c(Nc3ccc(Cl)c(Cl)c3F)ncnc2cc1OC[C@@H]1C[C@@H]2CN(C)C[C@@H]2C1
Reply: 20.7

Query: Look up cell viability with NOMO1 for this molecule: CC(C)Oc1cc(Nc2nc(N[C@@H](C)c3ccc(F)cn3)ncc2Cl)n[nH]1
Reply: 92.4

###

# Test system: NOMO1
# protocol details: cell viability relative to DMSO control; higher = less cytotoxic
# condition description: HPLM + 10% dialyzed FBS; 48 h; 0.0632 µM
This section presents compounds with their documented cell viability values.
Value expressed in %; do not type the unit.

Use these answered entries as a reference point.
compound	cell viability, %
CC(C)(C)c1cc(C=C(C#N)C#N)cc(Br)c1O	112
[NH2][Pt]([NH2])([Cl])[Cl]	121

Query: What cell viability value was documented for this compound, CN1\C(=C(\O)C2=C(C=CS2)[S+]1([O-])=O)C(=O)NC3=CC=CC=N3 ?
Reply: 112

Query: # query: cell viability of entry CC1(C)C(=O)N(CCN2CCC(C(=O)c3ccc(F)cc3)CC2)c2ccccc21
Reply: 151

Query: Any idea what cell viability was measured for Clc1cc(Cl)cc(CNc2ncncc2-c2ccc3c(c2)OCO3)c1 ?
Reply: 101

Query: cell viability lookup needed for CCC(=O)OCC(=O)[C@@]1(OC(=O)CC)[C@@H](C)C[C@H]2[C@@H]3CCC4=CC(=O)C=C[C@]4(C)[C@@]3(F)[C@@H](O)C[C@@]21C , thanks.
Reply: 115

###

Entries and their cell viability
# System: P12-Ichikawa
# protocol details: cell viability relative to DMSO control; higher = less cytotoxic
# condition description: RPMI 5 mM glucose + 10% FBS; 48 h; 15.4 µM
# output: bare number, implied unit %

Worked set:
molecule	cell viability (%)
C=CC1=C(C(=O)O)N2C(=O)[C@@H](NC(=O)/C(=N\O)c3csc(N)n3)[C@H]2SC1	124
C[C@@H](O)[C@@H]1[C@H]2[C@@H](C)\C(=C(/N2C1=O)C(=O)OCOC(=O)C(C)(C)C)SC3CN(C3)/C4=N/CCS4	111
OC(=O)\C1=C\N(C2=CC=C(F)C=C2)C3=C(C=C(F)C(=C3)N4CCNCC4)C1=O	99.1

Query: Look at this molecule and give its reported cell viability. CC(C)(C)C(=O)OCOP(=O)(COCCn1cnc2c(N)ncnc21)OCOC(=O)C(C)(C)C
Reply: 10.7

Query: Please give the measured cell viability for this molecule: O=C(O)c1ccc(-n2nc(-c3ccccc3O)nc2-c2ccccc2O)cc1
Reply: 53.3

Query: Recorded cell viability for Cc1ncc(OC[C@@]2(c3cccc(F)c3)C[C@H]2C(=O)Nc2ccc(F)cn2)c(C)n1 , please?
Reply: 106

Query: Name the recorded cell viability for CC(C)n1nc(-c2ccc3oc(N)nc3c2)c2c(N)ncnc21 .
Reply: 37.2

Query: Given the molecule COc1cc(O)c2c(c1)C1OC1C[C@H](O)[C@H](O)C(=O)/C=C\C[C@H](C)OC2=O (stereo partly drawn) , what is its reported cell viability?
Reply: 80.5

###

# System: SEM cells
# protocol details: cell viability relative to DMSO control; higher = less cytotoxic
# condition description: HPLM + 10% dialyzed FBS; 48 h; 46.1 µM
metric name: cell viability (%)
Numeric only. Scale: %

Known cell viability results, listed for orientation:
molecule	quantity unit	cell viability
C1CCC(C(CC2CCCCN2)C2CCCCC2)CC1 (stereo not drawn)	%	7.7
O=C(/C=C/c1cccc([S+](=O)([O-])Nc2ccccc2)c1)NO	%	8.48
C[S+](=O)([O-])N(Cc1ccco1)CC(O)Cn1c2ccccc2c2ccccc21 (stereo not drawn)	%	18.5
CCOc1cc(N)c(Cl)cc1C(=O)NCC1CN(Cc2ccc(F)cc2)CCO1 (stereo not drawn)	%	132
CC1(C)OC2CC3C4CC(F)C/5=C/C(=O)/C=C\C5(C)C4C(O)CC3(C)[C@@]2(O1)C(=O)CO (stereo partly drawn)	%	71.1

Query: cell viability lookup needed for CCC(=O)OCC(=O)[C@@]1(OC(=O)CC)[C@@H](C)C[C@H]2[C@@H]3CCC4=CC(=O)C=C[C@]4(C)[C@@]3(F)[C@@H](O)C[C@@]21C , thanks.
Reply: 61.2

Query: Please look up its cell viability: CC1=C(C=CC=C1)N2\C(=N/C3=C(C(=CC=C3)C)C2=O)C[N]4N=CC5=C4N=CN=C5N
Reply: 121

Query: Record request: cell viability value, item CC(C)(C)c1cc(C=C(C#N)C#N)cc(Br)c1O
Reply: 104

Query: Which value of cell viability has been reported for Cc1cccc(C)c1OCC(=O)N[C@@H](Cc1ccccc1)[C@@H](O)C[C@H](Cc1ccccc1)NC(=O)[C@H](C(C)C)N1CCCNC1=O in the records?
Reply: 39

Query: Bench note: what cell viability did Cn1c(Nc2ccc(C(F)(F)F)cc2)nc2cc(Oc3ccnc(-c4nc(C(F)(F)F)c[nH]4)c3)ccc21 show?
Reply: 24.8

Query: Which cell viability is reported for this molecule? C\C1=C\N([C@H]2C[C@H](N=[N+]=[N-])[C@@H](CO)O2)C(=O)NC1=O
Reply: 79.3

Query: Entry C=CC1=C(C(=O)O)N2C(=O)[C@@H](NC(=O)/C(=N\O)c3csc(N)n3)[C@H]2SC1 has what cell viability?
Reply: 95.7

Query: State the recorded cell viability for this entry: C\C1=C\C(=O)C2=C(C=CC=C2)C1=O
Reply: 80.4

Query: Give the measured cell viability of COc1cc2c(Oc3ccc(NC(=O)C4(C(=O)Nc5ccc(F)cc5)CC4)cc3F)ccnc2cc1OCCCN1CCOCC1 .
Reply: 3.11

Query: Fill blank: measured cell viability of the molecule O=C(NC[C@H]1CN(c2ccc(N3CCOCC3=O)cc2)C(=O)O1)c1ccc(Cl)s1 is ____.
Reply: 118

Query: What measured cell viability goes with CN(C)CCc1c[nH]c2ccc(C[C@H]3COC(=O)N3)cc12 ?
Reply: 7.45

Query: Which measured cell viability value corresponds to NC(=O)c1ncn([C@@H]2O[C@H](CO)[C@@H](O)[C@H]2O)n1 ?
Reply: 80.4

Query: What does the record list as cell viability for COC[C@@H](NC(C)=O)C(=O)NCc1ccccc1 ?
Reply: 111
